- Tested on: 855422-203-R-J1-PDC complex spheroid viability;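 further: spheroids exposed to compounds for seven days before readout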
- method: Anticancer human tumor 855422-203-R-J1-PDC patient-derived bladder carcinoma cell line growth inhibition [POLQ]
- condition-notes: second compound 10 µM; first compound 0.0316 µM; stronger effect = lower value
parameter: viability, T/C

>  <molecule>
CC[C@@]1(O)C(=O)OCc2c1cc1n(c2=O)Cc2cc3c(CN(C)C)c(O)ccc3nc2-1 + Cc1cccc(N(C)C(=O)C2C(O)CCN2c2nc(C)cc(C(F)(F)F)c2C#N)c1

>  <viability, T/C>
36%

$$$$
>  <molecule>
C=CCn1c(=O)c2cnc(Nc3ccc(N4CCN(C)CC4)cc3)nc2n1-c1cccc(C(C)(C)O)n1 + Cc1cccc(N(C)C(=O)C2C(O)CCN2c2nc(C)cc(C(F)(F)F)c2C#N)c1

>  <viability, T/C>
115%

$$$$
>  <molecule>
Cn1ncnc1[C@H]1c2n[nH]c(=O)c3cc(F)cc(c23)N[C@@H]1c1ccc(F)cc1 + COC1C(OC(N)=O)C(O)C(Oc2ccc3c(O)c(NC(=O)c4ccc(O)c(CC=C(C)C)c4)c(=O)oc3c2C)OC1(C)C

>  <viability, T/C>
100%

$$$$
>  <molecule>
CNCc1ccc(-c2[nH]c3cc(F)cc4c3c2CCNC4=O)cc1 + Nc1ccc(C#CCN(C(=O)Cc2ncc(C(F)(F)F)cc2C(F)(F)F)c2ccc(F)cc2)nn1

>  <viability, T/C>
98.3%

$$$$
>  <molecule>
COc1cccc(OCCCN)c1-c1cc(Nc2cnc(C#N)cn2)n[nH]1 + Cc1cccc(N(C)C(=O)C2C(O)CCN2c2nc(C)cc(C(F)(F)F)c2C#N)c1

>  <viability, T/C>
28.3%

$$$$

Req: # get_value(readout='viability, T/C', item= CC[C@@]1(O)C(=O)OCc2c1cc1n(c2=O)Cc2cc3c(CN(C)C)c(O)ccc3nc2-1 + COC1C(OC(N)=O)C(O)C(Oc2ccc3c(O)c(NC(=O)c4ccc(O)c(CC=C(C)C)c4)c(=O)oc3c2C)OC1(C)C )
Resp: 29.6%

Req: Can you handle C=CCn1c(=O)c2cnc(Nc3ccc(N4CCN(C)CC4)cc3)nc2n1-c1cccc(C(C)(C)O)n1 + COC1C(OC(N)=O)C(O)C(Oc2ccc3c(O)c(NC(=O)c4ccc(O)c(CC=C(C)C)c4)c(=O)oc3c2C)OC1(C)C next?
Resp: 101%

Req: Can you handle C=CC(=O)N1CCN(c2nc(=O)n(-c3c(C)ccnc3C(C)C)c3nc(-c4c(O)cccc4F)c(F)cc23)C(C)C1 (stereo not given) + Nc1ccc(C#CCN(C(=O)Cc2ncc(C(F)(F)F)cc2C(F)(F)F)c2ccc(F)cc2)nn1 next?
Resp: 109%

Req: Can you handle COc1cc(C2c3cc4c(cc3C(OC3OC5COC(C)OC5C(O)C3O)C3COC(=O)C23)OCO4)cc(OC)c1O (stereo not given) + COC1C(OC(N)=O)C(O)C(Oc2ccc3c(O)c(NC(=O)c4ccc(O)c(CC=C(C)C)c4)c(=O)oc3c2C)OC1(C)C next?
Resp: 111%

Req: Can you handle CC1COCCN1c1cc(C2(O)CC3CCC(C2)O3)c2cnn(-c3ccn[nH]3)c2n1 (stereo not given) + COC1C(OC(N)=O)C(O)C(Oc2ccc3c(O)c(NC(=O)c4ccc(O)c(CC=C(C)C)c4)c(=O)oc3c2C)OC1(C)C next?
Resp: 112%

The values you see were collected from PubChem BioAssay AID1963838.
